Values from PubChem BioAssay AID248

Each record here notes measured T/C.
# System: L1210 leukemia ip in BDF1 mice, survival T/C
# Method Notes: NCI In Vivo Anticancer Drug Screen. Data for tumor model L1210 Leukemia (intraperitoneal) in B6D2F1 (BDF1) mice
# Study Conditions: endpoint: mean survival time; dose: 25.0 mg/kg/injection; schedule: Q01DX001 (ip); vehicle: Klucel (hydroxypropylcellulose) (HPC); higher = longer survival
Toxic doses and inconclusive results are not listed.

Prompt: Value wanted: T/C (L1210 leukemia ip in BDF1 mice, survival T/C) of entry Nc1nc(N)c(-c2ccc(Cl)c(Cl)c2)c(COc2ccc(CCNS(=O)(=O)c3ccc(S(=O)(=O)F)cc3)cc2)n1
Completion: 96 % of control

Prompt: Value wanted: T/C (L1210 leukemia ip in BDF1 mice, survival T/C) of entry CCOC(=O)c1c[nH]c2ccc([N+](=O)[O-])cc2c1=O
Completion: 97 % of control

Prompt: Value wanted: T/C (L1210 leukemia ip in BDF1 mice, survival T/C) of entry O=C(Nc1cc([N+](=O)[O-])cc([N+](=O)[O-])c1O)C(F)(F)F
Completion: 102 % of control

# evaluate next
Prompt: Value wanted: T/C (L1210 leukemia ip in BDF1 mice, survival T/C) of entry Nc1cccc(CSc2nc3nc[nH]c3c(=O)[nH]2)c1
Completion: 102 % of control

---

# Test system: L1210 leukemia ip in BDF1 mice, survival T/C
# Method Notes: NCI In Vivo Anticancer Drug Screen. Data for tumor model L1210 Leukemia (intraperitoneal) in B6D2F1 (BDF1) mice
# Study Conditions: endpoint: mean survival time; dose: 100.0 mg/kg/injection; schedule: Q01DX001 (ip); vehicle: saline with Tween-80; higher = longer survival
Inconclusive results and toxic doses are left out.
Readout: T/C

Prompt: Value wanted: T/C (L1210 leukemia ip in BDF1 mice, survival T/C) of entry CCNS(=O)(=O)c1ccc(C(N)=S)cc1
Completion: 100 % of control

---
Prompt: Value wanted: T/C (L1210 leukemia ip in BDF1 mice, survival T/C) of entry c1ccc(-c2ccc(-c3c(-c4ccccc4)ccc(-c4ccccc4)c3-c3ccccc3)cc2)cc1
Completion: 104 % of control

---

# System: L1210 leukemia ip in BDF1 mice, survival T/C
# Method Notes: NCI In Vivo Anticancer Drug Screen. Data for tumor model L1210 Leukemia (intraperitoneal) in B6D2F1 (BDF1) mice
# Study Conditions: endpoint: mean survival time; dose: 200.0 mg/kg/injection; schedule: Q01DX001 (ip); vehicle: saline; higher = longer survival
Inconclusive results and toxic doses are left out.
Each record here notes measured T/C.

Prompt: Look up T/C for this molecule: NCCNCCNCCN
Completion: 98 % of control

Prompt: Look up T/C for this molecule: CC(=O)Oc1ccc2nccc(C)c2c1
Completion: 100 % of control

Prompt: Look up T/C for this molecule: O=c1ccn(C2CCCO2)c(=O)[nH]1 (centres undefined)
Completion: 100 % of control

Prompt: Look up T/C for this molecule: CC1C(=O)OC2CC[N+]3([O-])CC=C(COC(=O)C(C)(O)C1(C)O)C23 (centres undefined)
Completion: 96 % of control

Prompt: Look up T/C for this molecule: Cc1ccc(S(=O)(=O)CCCCCl)cc1
Completion: 96 % of control

Prompt: Look up T/C for this molecule: Cc1ncc(C(N)=O)c2c1OC(C)(C)OC2
Completion: 94 % of control

---
Prompt: Look up T/C for this molecule: Nc1ccc(N=Nc2c(Br)cc(S(N)(=O)=O)cc2Br)c(N)n1
Completion: 100 % of control

Prompt: Look up T/C for this molecule: O=C1C(c2[nH]c3cc4c(cc3c2O)OCO4)=Nc2cc3c(cc21)OCO3
Completion: 97 % of control

Prompt: Look up T/C for this molecule: CSc1n[nH]c(=O)[nH]c1=S
Completion: 101 % of control

Prompt: Look up T/C for this molecule: Cc1ccc(S(=O)(=O)N2CCc3ccccc3C(=O)C2)cc1
Completion: 94 % of control

Prompt: Look up T/C for this molecule: O=C1c2ccccc2C(=O)C2C1C(c1ccccc1)N(c1ccccc1)C2c1ccccc1 (centres undefined)
Completion: 94 % of control

---

# Tested on: L1210 leukemia ip in BDF1 mice, survival T/C
# Method Notes: NCI In Vivo Anticancer Drug Screen. Data for tumor model L1210 Leukemia (intraperitoneal) in B6D2F1 (BDF1) mice
# Study Conditions: endpoint: mean survival time; dose: 100.0 mg/kg/injection; schedule: Q01DX009 (ip); vehicle: saline with Tween-80; higher = longer survival
Toxic doses and inconclusive results are not listed.
Readout: T/C

Prompt: Look up T/C for this compound: Cc1ccc(C(C)(C)Cl)cc1O
Completion: 93 % of control

Prompt: Look up T/C for this compound: CNC(=O)NNc1ccccc1
Completion: 101 % of control

Prompt: Look up T/C for this compound: CCOc1ccc(Br)cc1/C=N/NS(=O)(=O)c1ccc(C)cc1
Completion: 94 % of control

Prompt: Look up T/C for this compound: OC(CCl)Cc1ccccc1 (stereo not drawn)
Completion: 92 % of control

---

# System: L1210 leukemia ip in BDF1 mice, survival T/C
# Method Notes: NCI In Vivo Anticancer Drug Screen. Data for tumor model L1210 Leukemia (intraperitoneal) in B6D2F1 (BDF1) mice
# Study Conditions: endpoint: mean survival time; dose: 100.0 mg/kg/injection; schedule: Q04DX002 (ip); vehicle: Klucel (hydroxypropylcellulose) (HPC); higher = longer survival
# Description: The antitumor activity of compounds was measured in mice bearing transplantable tumors. Survival or tumor size were measured and the results are expressed as the measurement made in the treated group (T) divided by the measurement made in the vehicle treated control group (C). The tumor model used in this assay is L1210 Leukemia (intraperitoneal) in B6D2F1 (BDF1) mice
Inconclusive results and toxic doses are left out.
Each record here notes measured T/C.

In the examples that follow, each entry is paired with its recorded T/C.
Prompt: Look up T/C for this compound: NC(=S)N/N=C/c1cccn1Cc1cc2c(cc1[N+](=O)[O-])OCO2
Completion: 104 % of control

Prompt: Look up T/C for this compound: Cc1cc(O)ccc1C1=NCC(C)S1 (stereo unspecified)
Completion: 100 % of control

Prompt: Look up T/C for this compound: O=[N+]([O-])c1ccccc1S/N=C/c1ccccc1O
Completion: 94 % of control

Prompt: Look up T/C for this compound: O=C1CSc2ccccc2N1
Completion: 97 % of control

Prompt: Look up T/C for this compound: Cc1ccc(OCCO)cc1C
Completion: 120 % of control

---
Prompt: Look up T/C for this compound: CC1(C)CC(=O)C2=C(C1)Nc1ccc(Cl)cc1NC2c1ccccc1 (stereo unspecified)
Completion: 92 % of control

Prompt: Look up T/C for this compound: CN1C(=O)c2ccccc2/C=C\c2ccccc21
Completion: 103 % of control

Prompt: Look up T/C for this compound: CCc1ccccc1NC(=O)C(Cl)Cl
Completion: 100 % of control

Prompt: Look up T/C for this compound: O=C(OCc1ccccc1CN1CCOCC1)c1ccc(Cl)cc1
Completion: 103 % of control

Prompt: Look up T/C for this compound: CC1(C)OCC(C(NC(=O)c2ccccc2)C(OC(=O)c2ccccc2)C2COC(C)(C)O2)O1 (stereo unspecified)
Completion: 90 % of control

Prompt: Look up T/C for this compound: CC(C)(O)OC1COC(C2CS2)C1O (stereo unspecified)
Completion: 94 % of control

---

# System: L1210 leukemia ip in BDF1 mice, survival T/C
# Method Notes: NCI In Vivo Anticancer Drug Screen. Data for tumor model L1210 Leukemia (intraperitoneal) in B6D2F1 (BDF1) mice
# Study Conditions: endpoint: mean survival time; dose: 100.0 mg/kg/injection; schedule: Q01DX009 (ip); vehicle: saline with Tween-80; higher = longer survival
Toxic doses and inconclusive results are not listed.
Each record here notes measured T/C.

Prompt: Look up T/C for this molecule: c1csc(-c2nc3ccccc3s2)c1
Completion: 98 % of control

Prompt: Look up T/C for this molecule: Cc1ccc(C(O)(c2ccccc2)c2ccccc2C(=O)Nc2ccccc2)cc1 (stereo not drawn)
Completion: 95 % of control

# evaluate next
Prompt: Look up T/C for this molecule: O=C1N(Cl)C(=O)C(c2ccc(C(F)(F)F)cc2)(c2ccc(C(F)(F)F)cc2)N1Cl
Completion: 100 % of control

---

# Tested on: L1210 leukemia ip in BDF1 mice, survival T/C
# Method Notes: NCI In Vivo Anticancer Drug Screen. Data for tumor model L1210 Leukemia (intraperitoneal) in B6D2F1 (BDF1) mice
# Study Conditions: endpoint: mean survival time; dose: 400.0 mg/kg/injection; schedule: Q01DX009 (ip); vehicle: Klucel (hydroxypropylcellulose) (HPC); higher = longer survival
Inconclusive results and toxic doses are left out.
Each record here notes measured T/C.

In the examples that follow, each entry is paired with its recorded T/C.
Prompt: Look up T/C for this compound: O=C(Nc1ccccc1C(=O)N/N=C/c1ccccc1O)c1ccccc1Cl
Completion: 94 % of control

Prompt: Look up T/C for this compound: CCOC(=O)c1ccc(NC(=O)SCCSC(=O)Nc2ccc(C(=O)OCC)cc2)cc1
Completion: 91 % of control

Prompt: Look up T/C for this compound: COc1ccccc1C(=O)N/N=C/c1ccc(O)cc1O
Completion: 100 % of control

Prompt: Look up T/C for this compound: Clc1ccc(CSc2nc3ccccc3[nH]2)cc1
Completion: 103 % of control

Prompt: Look up T/C for this compound: O=C(O)CNc1ccccc1C(=O)O
Completion: 92 % of control

Prompt: Look up T/C for this compound: CC1CCN(C(=O)Nc2ccc(Cl)cc2[N+](=O)[O-])CC1
Completion: 91 % of control

Prompt: Look up T/C for this compound: Cc1ccc(S(=O)(=O)Nc2ccc([N+](=O)[O-])cc2O)cc1
Completion: 94 % of control

---
Prompt: Look up T/C for this compound: CCOC(=O)c1ccc(NC(=O)/C=C/C(=O)O)cc1
Completion: 98 % of control
